measurement parameters: in isopropanol, 313.15 K
metric name: solubility (mole fraction)
Give bare numbers.

Prompt: Requested field: solubility (mole fraction). Item: COc1cccc(C(=O)O)c1OC
Response: 0.0482

----------
measurement parameters: in methyl acetate, 298.15 K
metric name: solubility (mole fraction)

Prompt: Requested field: solubility (mole fraction). Item: COc1cccc(C(=O)O)c1OC
Response: 0.034

----------
measurement parameters: in acetonitrile, 283.15 K
metric name: solubility (mole fraction)
Numbers only.

Prompt: Requested field: solubility (mole fraction). Item: COc1cccc(C(=O)O)c1OC
Response: 0.0133

----------
measurement parameters: in 1,4-dioxane, 298.15 K
metric name: solubility (mole fraction)

Prompt: Requested field: solubility (mole fraction). Item: COc1cccc(C(=O)O)c1OC
Response: 0.0805

----------
measurement parameters: in ethyl acetate, 288.15 K
metric name: solubility (mole fraction)
Numbers only.

Prompt: Requested field: solubility (mole fraction). Item: COc1cccc(C(=O)O)c1OC
Response: 0.0189

----------
measurement parameters: in water, 293.15 K
metric name: solubility (mole fraction)
One number for each entry.

Prompt: Requested field: solubility (mole fraction). Item: COc1cccc(C(=O)O)c1OC
Response: 0.0001

----------
measurement parameters: in n-butyl acetate, 283.15 K
metric name: solubility (mole fraction)

Prompt: Requested field: solubility (mole fraction). Item: COc1cccc(C(=O)O)c1OC
Response: 0.0111

----------
measurement parameters: in ethyl acetate, 313.15 K
metric name: solubility (mole fraction)
Numbers only.

Prompt: Requested field: solubility (mole fraction). Item: COc1cccc(C(=O)O)c1OC
Response: 0.0464

----------
measurement parameters: in water, 298.15 K
metric name: solubility (mole fraction)
Give bare numbers.

Prompt: Requested field: solubility (mole fraction). Item: COc1cccc(C(=O)O)c1OC
Response: 0.000125

----------
measurement parameters: in ethylene glycol, 308.15 K
metric name: solubility (mole fraction)
One number for each entry.

Prompt: Requested field: solubility (mole fraction). Item: COc1cccc(C(=O)O)c1OC
Response: 0.104

----------
measurement parameters: in isopropanol, 303.15 K
metric name: solubility (mole fraction)
Answers are plain numbers.

Prompt: Requested field: solubility (mole fraction). Item: COc1cccc(C(=O)O)c1OC
Response: 0.0291

----------
measurement parameters: in isopropanol, 323.15 K
metric name: solubility (mole fraction)
Numbers only.

Prompt: Requested field: solubility (mole fraction). Item: COc1cccc(C(=O)O)c1OC
Response: 0.0791

----------
measurement parameters: in acetonitrile, 308.15 K
metric name: solubility (mole fraction)

Prompt: Requested field: solubility (mole fraction). Item: COc1cccc(C(=O)O)c1OC
Response: 0.0385

----------
measurement parameters: in n-propanol, 318.15 K
metric name: solubility (mole fraction)
One number for each entry.

Prompt: Requested field: solubility (mole fraction). Item: COc1cccc(C(=O)O)c1OC
Response: 0.0618

----------
measurement parameters: in n-propyl acetate, 298.15 K
metric name: solubility (mole fraction)
Answers are plain numbers.

Prompt: Requested field: solubility (mole fraction). Item: COc1cccc(C(=O)O)c1OC
Response: 0.0224

----------
measurement parameters: in methanol, 288.15 K
metric name: solubility (mole fraction)
One number for each entry.

Prompt: Requested field: solubility (mole fraction). Item: COc1cccc(C(=O)O)c1OC
Response: 0.0229

----------
measurement parameters: in n-propyl acetate, 313.15 K
metric name: solubility (mole fraction)

Prompt: Requested field: solubility (mole fraction). Item: COc1cccc(C(=O)O)c1OC
Response: 0.0403
